Tested on: HDAC (Mouse Liver Extract)
Assay: Histone Deacetylase (HDAC) Inhibition Assay using Boc-Lys (Ac)-AMC Substrate
Format: biochemical
Settings: 10 μM; mouse liver enzyme; NA = No Activity; in % (unit assumed)
READOUT_NAME: HDAC Inhibition 10 μM
Lab note: jot the number down without any unit.

Input: Entry under review: `COc1cc(CNC(=O)CN2CCN(C(=O)CCCCSC(C)=O)CC2)cc(OC)c1` . Reported HDAC Inhibition 10 μM?
Output: 55.4

Input: For `CC(=O)ON(C(C)=O)C(=O)CCCCCCC(=O)N1CCN(CC(=O)Nc2nc3ccc(C)cc3s2)CC1` , what is its reported HDAC Inhibition 10 μM?
Output: 84.23

Input: Entry under review: `CC(=O)SCCCCC(=O)N1CCN(CC(=O)Nc2nccs2)CC1` . Reported HDAC Inhibition 10 μM?
Output: 45.96

Input: Which HDAC Inhibition 10 μM reading was recorded for the compound `CCOc1ccc2nc(NC(=O)CN3CCN(C(=O)CCCCCCC(=O)N(O)C(C)=O)CC3)sc2c1` ?
Output: 94.70

Input: // HDAC Inhibition 10 μM lookup, key: `Cc1csc(NC(=O)CN2CCN(C(=O)CCCCCCC(=O)NO)CC2)n1`
Output: 92.38

Input: Fill in: HDAC Inhibition 10 μM of `Cc1ccc2nc(NC(=O)CN3CCN(C(=O)CCCCCS)CC3)sc2c1` is ___
Output: 3.6

Input: What value of HDAC Inhibition 10 μM has been recorded for this entry: `CC(=O)SCCCCC(=O)N1CCN(CC(=O)Nc2cccc(F)c2)CC1`
Output: 81.7

Input: Find the recorded HDAC Inhibition 10 μM belonging to `CC(=O)SCCCCCC(=O)N1CCN(CC(=O)Nc2cccc(F)c2)CC1` and report it.
Output: 50.0

Input: For the compound shown here, `O=C(CCCCCCC(=O)N1CCN(CC(=O)Nc2nccs2)CC1)NO` , give the reported HDAC Inhibition 10 μM.
Output: 89.86

----------
Consider the following compounds; for each one, report its LC50.
Test system: MDAMB231/U251
Test: Anti-cancer screen (MTT), MDAMB231/U251
Type: cell-based
Details: MDAMB231/U251 cells, 48 hours, concentration to decrease % growth by 150%

Input: Could you tell me which LC50 is on file for `N[C@H](CO)C(=O)NCCCCCC(=O)N1CCN(CC(=O)Nc2nc3ccccc3s2)CC1` ?
Output: > 100 µM

Input: Item under review: `COC(=O)[C@H](CO)NC(=O)CCCCCCC(=O)N1CCN(CC(=O)Nc2nc3ccc(C)cc3s2)CC1` . Reported LC50?
Output: 82 µM

Input: Please look up its LC50: `CC(=O)SCCCCC(=O)N1CCN(CC(=O)Nc2cccc(F)c2)CC1`
Output: > 100 µM

Input: Look up LC50: `Cc1csc(NC(=O)CN2CCN(C(=O)CCCCCCC(=O)NO)CC2)n1`
Output: > 100 µM

Input: What value of LC50 has been reported for the following compound? `CC(=O)SCCCCCC(=O)N1CCN(CC(=O)Nc2cccc(F)c2)CC1`
Output: > 100 µM

Input: If you can, please state the reported LC50 value of `O=C(CN1CCN(C(=O)CCCCCNO)CC1)Nc1nc2ccccc2s1` .
Output: > 100 µM

Input: Reported LC50 for `O=C(CCCCCCC(=O)N1CCN(CC(=O)Nc2nc3ccccc3s2)CC1)NO` : what is it?
Output: 95 µM

Input: Would you kindly share the measured LC50 for `CC(=O)SCCCCC(=O)N1CCN(C(=O)CNc2nc3ccccc3s2)CC1` ?
Output: > 100 µM

Input: Please give the measured LC50 for this compound: `CC(=O)NCCCCCC(=O)N1CCN(CC(=O)Nc2nc3ccccc3s2)CC1`
Output: > 100 µM
